# procedure.summary: viability loss in pontine glioma line – cell-based, SU-DIPG-XXV, MIPE5.0, CellTiter-Glo, qHTS, dose response (AID 1347065);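 also: cells exposed to compound for 48 hours before ATP readout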
# test.settings: CellTiter-Glo ATP luminescence
Results filed as inconclusive are left out. Activity calls are given as the source filed them. The limit is not given here; nearly all actives have AC50 up to about 26 µM.
Please state which outcome applies, choosing from active, inactive

Example entries and their recorded answers appear below.
O=C(Nc1ccc(-c2ccnc(Nc3ccc(N4CCOCC4)cc3)n2)cc1)C1CCCN1 (stereo unspecified)    active
CC(=O)NCC(=O)N1[C@@H]2CC[C@H]1c1ccc(Nc3ncc(C(F)(F)F)c(NC4CCC4)n3)cc12    active
Cc1cc(Nc2cc(N3CCN(C)CC3)nc(Sc3ccc(NC(=O)C4CC4)cc3)n2)n[nH]1    active

Moving on to the next compound.
For "COc1cc(Nc2ncc(F)c(Nc3ccc4c(n3)NC(=O)C(C)(C)O4)n2)cc(OC)c1OC" , what call appears in the results of this test?
active

----------
# procedure.summary: MELAS cybrid and Rieske KO viability enhancers – cell-based, MELAS cybrids, Rieske KO mouse fibroblasts, CellTiter-Glo, primary screen (AID 1508586);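 also: z relative to plate mean and SD of compound and empty wells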
# test.settings: Rieske KO mouse fibroblast survival, low glucose, CellTiter-Glo 72 h
Parameter threshold = 0.07. Response is yes (1) when z-score meets or exceeds it, else no (0).

CCN(CCO)CCCOc1ccc2c(Nc3cc(CC(=O)Nc4cccc(F)c4)[nH]n3)ncnc2c1    yes (1)
CCc1nc(-c2cccc(C)c2)c(-c2ccnc(NC(=O)c3ccccc3)c2)s1    yes (1)
COc1ccc(F)c(F)c1C(=O)c1cnc(NC2CCN(S(C)(=O)=O)CC2)nc1N    no (0)
COc1nc(N)nc2c1ncn2C1OC(CO)C(O)C1O (stereo not given)    no (0)

Record "O=C1C(=O)N(Cc2ccc(Cl)c(Cl)c2)c2ccccc21" ; criterion: z-score no lower than 0.07. Met?
no (0)

Has O=C(NOCC(O)CO)c1ccc(F)c(F)c1Nc1ccc(I)cc1F (stereo not given) a recorded z-score greater than or equal to 0.07?
no (0)

Decide: z-score of "Nc1ccc2ncnc(NCCc3ccc(Oc4ccccc4)cc3)c2c1" >= 0.07?
no (0)

Record "COc1ccc(-c2ccc(N)[n+](CCCC(=O)O)n2)cc1" ; criterion: z-score no lower than 0.07. Met?
no (0)

Check this molecule for z-score at or above 0.07: "CS(=O)(=O)N1CCN(Cc2cc3nc(-c4cccc5[nH]ncc45)nc(N4CCOCC4)c3s2)CC1"
yes (1)

Dear colleague, could you confirm whether "Cc1nn(-c2ccccc2)c(C)c1C=NN1CCN(Cc2ccccc2)CC1" has z-score at or above 0.07?
no (0)

----------
# procedure.summary: viability loss in pontine glioma line – cell-based, SU-DIPG-IV, MIPE4.0, CellTiter-Glo, qHTS, dose response (AID 1347063);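 also: compound exposure lasted 48 hours before the viability readout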
# test.settings: CellTiter-Glo ATP luminescence
Records with an inconclusive call do not appear. The source made the active and inactive calls. Cut-off not given; nearly all actives show AC50 up to about 30 µM.
Outcomes you can answer with include only these: t for active, f for inactive

CC[C@@H]1C(=O)N(C)c2cnc(Nc3ccc(C(=O)NC4CCC(N5CCN(CC6CC6)CC5)CC4)cc3OC)nc2N1C(C)C (some centres undefined)    t
CNC(=O)c1ccc(-c2cnc3ncc(Cc4ccc5ncccc5c4)n3n2)cc1F    f

Recorded test outcome, item "CCOc1ccn(-c2ccc(F)cc2)c(=O)c1C(=O)Nc1ccc(Oc2ccnc(N)c2Cl)c(F)c1"
t

Lab log entry: C[Se]CCC(N)C(=O)O (centres undefined) — outcome as called in the assay?
f
